The measured values listed here are drawn from paper PMC7591811.

Entries below carry reported Ki on Adenosine A3 (Homo sapiens, UniProt P0DMS8).
One number for each entry, in nM.

Q: Indicate its recorded Ki; the compound in question is COc1cc(NC(C)=O)c(Cl)cc1C(=O)Nc1nccs1
A: 830

Please find the next compound below.
Q: Indicate its recorded Ki; the compound in question is Oc1cccc(Nc2nc(-c3ccc(F)cc3F)cs2)c1
A: 24

* * *

Molecular target: Melatonin MT2 (Homo sapiens, UniProt P49286)
Sequence (P49286 whole entry): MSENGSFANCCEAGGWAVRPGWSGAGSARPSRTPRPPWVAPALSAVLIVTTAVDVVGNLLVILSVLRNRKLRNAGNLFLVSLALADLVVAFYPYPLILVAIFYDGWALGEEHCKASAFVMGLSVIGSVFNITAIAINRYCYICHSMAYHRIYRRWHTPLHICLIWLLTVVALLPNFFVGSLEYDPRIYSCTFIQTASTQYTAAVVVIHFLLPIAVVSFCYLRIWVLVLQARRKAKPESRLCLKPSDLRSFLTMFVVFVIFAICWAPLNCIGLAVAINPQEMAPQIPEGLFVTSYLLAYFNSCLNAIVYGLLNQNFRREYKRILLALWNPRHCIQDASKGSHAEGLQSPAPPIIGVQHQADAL
test_readout: pIC50
Numbers only, as −log10 of the molar value.

Q: Please report pIC50 with Melatonin MT2 (Homo sapiens, UniProt P49286) for item O=C(c1ccc(Cl)cc1)N(Cc1ccccc1)C1CCCCC1 [FPS-ZM1, N-Benzyl-N-cyclohexyl-4-chlorobenzamide] .
A: 5.15

* * *

Target sequence: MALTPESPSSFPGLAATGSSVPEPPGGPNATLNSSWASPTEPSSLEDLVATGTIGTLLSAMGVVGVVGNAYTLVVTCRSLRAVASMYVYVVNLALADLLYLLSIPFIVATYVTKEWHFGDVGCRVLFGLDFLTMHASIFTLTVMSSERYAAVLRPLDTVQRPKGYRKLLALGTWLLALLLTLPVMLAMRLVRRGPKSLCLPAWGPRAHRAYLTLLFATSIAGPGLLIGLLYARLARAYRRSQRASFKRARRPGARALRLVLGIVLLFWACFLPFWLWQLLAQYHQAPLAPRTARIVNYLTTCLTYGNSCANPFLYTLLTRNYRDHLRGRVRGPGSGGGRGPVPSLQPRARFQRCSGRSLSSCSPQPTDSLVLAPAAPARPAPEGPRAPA
Could you please report measured pIC50 for the items listed next?
Numbers only, as −log10 of the molar value.

List the reported pIC50 of each compound below.
1. COc1cc(NC(C)=O)c(Cl)cc1C(=O)Nc1nccs1
2. Oc1cccc(Nc2nc(-c3ccc(F)cc3F)cs2)c1

A:
[5.85, 5.85]

* * *

Biological target: UniProtKB P0DMS8
Sequence (P0DMS8 1-318): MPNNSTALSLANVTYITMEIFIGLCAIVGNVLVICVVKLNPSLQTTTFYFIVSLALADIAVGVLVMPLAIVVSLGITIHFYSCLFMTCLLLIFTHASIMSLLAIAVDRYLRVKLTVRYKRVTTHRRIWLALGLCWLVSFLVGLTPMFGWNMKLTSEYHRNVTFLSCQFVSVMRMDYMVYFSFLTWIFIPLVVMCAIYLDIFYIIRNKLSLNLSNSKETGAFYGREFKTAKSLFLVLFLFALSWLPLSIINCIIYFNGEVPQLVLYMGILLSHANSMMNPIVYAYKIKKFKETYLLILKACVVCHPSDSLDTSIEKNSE
Test: Lead profiling screen
Assay type: binding
test_readout: IC50 (µM)
Numbers only, in µM.

Q: Please report IC50 with UniProtKB P0DMS8 for item COc1cc(NC(C)=O)c(Cl)cc1C(=O)Nc1nccs1 .
A: 1.4

* * *

Target: Cyclooxygenase 1 (Homo sapiens)
Sequence (P23219 24-599, species assumed): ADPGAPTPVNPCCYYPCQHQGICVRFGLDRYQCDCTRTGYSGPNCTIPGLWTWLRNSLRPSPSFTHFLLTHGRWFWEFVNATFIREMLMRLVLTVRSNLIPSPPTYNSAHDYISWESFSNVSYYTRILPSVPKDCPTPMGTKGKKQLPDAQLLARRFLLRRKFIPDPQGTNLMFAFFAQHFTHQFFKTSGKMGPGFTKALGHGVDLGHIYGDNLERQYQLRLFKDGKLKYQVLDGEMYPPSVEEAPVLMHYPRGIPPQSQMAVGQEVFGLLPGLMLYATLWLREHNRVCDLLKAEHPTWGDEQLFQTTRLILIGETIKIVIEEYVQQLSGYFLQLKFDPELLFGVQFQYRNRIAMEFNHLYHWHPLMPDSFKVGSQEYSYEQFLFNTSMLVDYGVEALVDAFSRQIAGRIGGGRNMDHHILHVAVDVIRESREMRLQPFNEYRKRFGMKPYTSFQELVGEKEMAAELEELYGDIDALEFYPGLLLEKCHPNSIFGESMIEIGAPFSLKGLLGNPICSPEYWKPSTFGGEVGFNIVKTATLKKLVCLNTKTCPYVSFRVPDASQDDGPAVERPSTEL
Experiment: Lead profiling screen, enzyme assay
Format: biochemical
test_readout: IC50 (µM)
Give bare numbers, in µM.

Q: Indicate its recorded IC50; the molecule in question is COc1cc(NC(C)=O)c(Cl)cc1C(=O)Nc1nccs1
A: 12

* * *

Biological target: EP2 (Homo sapiens)
Sequence (P43116 whole entry): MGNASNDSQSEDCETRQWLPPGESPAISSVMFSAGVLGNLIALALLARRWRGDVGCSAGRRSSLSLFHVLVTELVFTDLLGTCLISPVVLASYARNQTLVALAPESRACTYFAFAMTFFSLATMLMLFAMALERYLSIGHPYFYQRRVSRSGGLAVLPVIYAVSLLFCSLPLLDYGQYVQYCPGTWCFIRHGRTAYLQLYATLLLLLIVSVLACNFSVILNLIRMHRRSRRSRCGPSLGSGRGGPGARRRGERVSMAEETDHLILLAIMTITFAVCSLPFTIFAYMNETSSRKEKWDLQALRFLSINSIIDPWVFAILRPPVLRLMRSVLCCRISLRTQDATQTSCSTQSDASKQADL
test_readout: Ki

Q: Indicate its recorded Ki; the compound in question is Oc1cccc(Nc2nc(-c3ccc(F)cc3F)cs2)c1 [InRAGER]
A: 2300 nM

* * *

Could you please report measured pKi for the items listed next?
Target: UniProt:Q9UKP6
Sequence (Q9UKP6 1-389): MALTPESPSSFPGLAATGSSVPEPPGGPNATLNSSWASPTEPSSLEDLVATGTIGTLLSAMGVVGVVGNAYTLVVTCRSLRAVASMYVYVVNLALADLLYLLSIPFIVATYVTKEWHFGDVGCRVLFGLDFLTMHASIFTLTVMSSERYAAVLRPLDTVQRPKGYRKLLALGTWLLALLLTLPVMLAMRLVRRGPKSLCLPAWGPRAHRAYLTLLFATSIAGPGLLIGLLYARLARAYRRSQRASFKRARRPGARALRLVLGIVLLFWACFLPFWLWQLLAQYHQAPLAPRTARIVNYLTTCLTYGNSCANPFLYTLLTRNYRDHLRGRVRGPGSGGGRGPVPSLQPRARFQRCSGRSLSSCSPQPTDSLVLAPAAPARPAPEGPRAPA
One number for each entry, as −log10 of the molar value.

Q: Indicate its recorded pKi; the molecule in question is COc1cc(NC(C)=O)c(Cl)cc1C(=O)Nc1nccs1
A: 6.00

Please find the next molecule below.
Q: Indicate its recorded pKi; the molecule in question is Oc1cccc(Nc2nc(-c3ccc(F)cc3F)cs2)c1
A: 5.05

* * *

Molecular target: Peripheral benzodiazepine receptor (Rattus norvegicus)
test_readout: Ki (µM)
One number for each entry, in µM.

Q: Indicate its recorded Ki; the molecule in question is O=C(c1ccc(F)cc1)N(Cc1ccccc1)C1CCCCC1 [RAGER, N-Benzyl-N-cyclohexyl-4-fluorobenzamide]
A: 8.5

* * *

Target: Melatonin MT1 (Homo sapiens)
test_readout: IC50
Remember to put the unit after the number in your answer.

Q: Please report IC50 with Melatonin MT1 (Homo sapiens) for item O=C(c1ccc(Cl)cc1)N(Cc1ccccc1)C1CCCCC1 [FPS-ZM1, N-Benzyl-N-cyclohexyl-4-chlorobenzamide] .
A: 1500 nM

* * *

Entries below carry reported pKi on Serotonin (5-Hydroxytryptamine) 5-HT2B (Homo sapiens).
Sequence (P41595 whole entry): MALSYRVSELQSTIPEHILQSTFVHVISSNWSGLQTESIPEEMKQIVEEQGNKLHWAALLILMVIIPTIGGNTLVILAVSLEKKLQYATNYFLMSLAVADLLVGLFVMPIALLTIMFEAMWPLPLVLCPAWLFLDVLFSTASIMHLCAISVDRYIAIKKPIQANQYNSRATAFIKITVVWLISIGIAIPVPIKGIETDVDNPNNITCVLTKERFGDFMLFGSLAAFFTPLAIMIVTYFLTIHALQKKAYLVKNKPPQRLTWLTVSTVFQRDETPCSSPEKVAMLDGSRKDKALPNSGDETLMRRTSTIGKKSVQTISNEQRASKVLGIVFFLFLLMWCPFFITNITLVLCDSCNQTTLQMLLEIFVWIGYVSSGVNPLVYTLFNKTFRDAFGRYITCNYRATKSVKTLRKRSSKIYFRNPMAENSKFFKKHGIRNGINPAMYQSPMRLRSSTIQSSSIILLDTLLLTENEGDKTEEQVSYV
Answers are plain numbers, as −log10 of the molar value.

List the reported pKi of each compound below.
1. Oc1cccc(Nc2nc(-c3ccc(F)cc3F)cs2)c1
2. COc1cc(NC(C)=O)c(Cl)cc1C(=O)Nc1nccs1

A:
6.26
6.89

* * *

Molecular target: BZD (peripheral) (Rattus norvegicus)
Could you please report measured Ki for the items listed next?
One number for each entry, in µM.

Q: Please report Ki with BZD (peripheral) (Rattus norvegicus) for item Oc1cccc(Nc2nc(-c3ccc(F)cc3F)cs2)c1 [InRAGER] .
A: 12

More entries:
Q: Please report Ki with BZD (peripheral) (Rattus norvegicus) for item COc1cc(NC(C)=O)c(Cl)cc1C(=O)Nc1nccs1 [InRAGER2] .
A: 0.44

* * *

Target: Transporter, Dopamine (DAT) (Homo sapiens)
Sequence (Q01959 whole entry): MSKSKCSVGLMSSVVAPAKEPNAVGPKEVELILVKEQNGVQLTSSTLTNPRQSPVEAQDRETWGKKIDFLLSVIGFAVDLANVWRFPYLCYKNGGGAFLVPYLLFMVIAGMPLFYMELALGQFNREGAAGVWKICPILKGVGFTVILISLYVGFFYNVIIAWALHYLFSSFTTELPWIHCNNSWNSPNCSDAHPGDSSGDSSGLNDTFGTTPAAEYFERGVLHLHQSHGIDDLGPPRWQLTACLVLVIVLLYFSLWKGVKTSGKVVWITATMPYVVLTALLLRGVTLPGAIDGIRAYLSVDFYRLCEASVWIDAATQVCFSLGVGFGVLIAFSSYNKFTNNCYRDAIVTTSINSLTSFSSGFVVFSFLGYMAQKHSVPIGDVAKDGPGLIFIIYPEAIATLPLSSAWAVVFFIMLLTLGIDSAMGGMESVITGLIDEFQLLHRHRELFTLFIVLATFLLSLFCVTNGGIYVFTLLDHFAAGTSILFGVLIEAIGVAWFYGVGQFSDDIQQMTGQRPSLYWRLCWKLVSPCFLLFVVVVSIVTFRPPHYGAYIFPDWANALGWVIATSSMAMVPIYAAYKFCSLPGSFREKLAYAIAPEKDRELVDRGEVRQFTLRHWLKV
test_readout: Ki (µM)
Give bare numbers, in µM.

Q: Please report Ki with Transporter, Dopamine (DAT) (Homo sapiens) for item O=C(c1ccc(F)cc1)N(Cc1ccccc1)C1CCCCC1 [RAGER, N-Benzyl-N-cyclohexyl-4-fluorobenzamide] .
A: 6.8

* * *

Entries below carry reported Ki on Melatonin MT1 (Homo sapiens, UniProt P48039).
Sequence (P48039 whole entry): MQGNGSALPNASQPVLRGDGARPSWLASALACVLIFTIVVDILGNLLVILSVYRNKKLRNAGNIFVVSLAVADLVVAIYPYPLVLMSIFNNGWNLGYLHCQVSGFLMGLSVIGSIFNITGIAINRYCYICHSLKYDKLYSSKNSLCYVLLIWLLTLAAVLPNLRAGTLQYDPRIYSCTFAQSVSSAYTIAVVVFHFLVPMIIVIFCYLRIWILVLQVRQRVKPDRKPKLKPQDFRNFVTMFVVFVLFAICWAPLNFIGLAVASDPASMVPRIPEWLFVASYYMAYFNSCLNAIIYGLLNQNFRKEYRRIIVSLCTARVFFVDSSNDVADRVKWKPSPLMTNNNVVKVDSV
Answers are plain numbers, in nM.

Q: Please report Ki with Melatonin MT1 (Homo sapiens, UniProt P48039) for item O=C(c1ccc(Cl)cc1)N(Cc1ccccc1)C1CCCCC1 [FPS-ZM1, N-Benzyl-N-cyclohexyl-4-chlorobenzamide] .
A: 1200

Please find the next compound below.
Q: Please report Ki with Melatonin MT1 (Homo sapiens, UniProt P48039) for item O=C(c1ccc(F)cc1)N(Cc1ccccc1)C1CCCCC1 [RAGER, N-Benzyl-N-cyclohexyl-4-fluorobenzamide] .
A: 93

* * *

Target: BZD (peripheral) (Rattus norvegicus, UniProt P16257)
Sequence (P16257 whole entry): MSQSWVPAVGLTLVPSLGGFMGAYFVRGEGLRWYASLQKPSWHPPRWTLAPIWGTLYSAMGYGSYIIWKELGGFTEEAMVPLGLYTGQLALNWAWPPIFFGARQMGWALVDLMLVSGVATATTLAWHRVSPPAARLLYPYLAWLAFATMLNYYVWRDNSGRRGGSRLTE
test_readout: IC50 (nM)
Answers are plain numbers, in nM.

Q: Indicate its recorded IC50; the compound in question is COc1cc(NC(C)=O)c(Cl)cc1C(=O)Nc1nccs1
A: 480

More entries:
Q: Indicate its recorded IC50; the compound in question is Oc1cccc(Nc2nc(-c3ccc(F)cc3F)cs2)c1
A: 480
